# target-desc: COUP transcription factor 2 (Homo sapiens) (UniProt P24468)
# Sequence (P24468 whole entry, looked up): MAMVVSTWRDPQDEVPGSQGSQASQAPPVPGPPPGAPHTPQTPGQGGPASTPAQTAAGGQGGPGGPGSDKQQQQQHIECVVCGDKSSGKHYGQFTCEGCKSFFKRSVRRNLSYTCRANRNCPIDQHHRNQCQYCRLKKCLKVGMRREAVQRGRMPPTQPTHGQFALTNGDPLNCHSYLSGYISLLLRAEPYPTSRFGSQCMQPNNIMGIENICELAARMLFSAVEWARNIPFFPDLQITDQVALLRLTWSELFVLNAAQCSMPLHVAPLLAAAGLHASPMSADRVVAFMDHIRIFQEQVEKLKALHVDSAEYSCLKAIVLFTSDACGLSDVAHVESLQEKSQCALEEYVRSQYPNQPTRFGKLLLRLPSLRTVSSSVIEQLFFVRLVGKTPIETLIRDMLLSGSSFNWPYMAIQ
# assay-overview: NR2F2 transcriptional activity inhibitors, confirmation, cell-based, luciferase reporter, HEK293, triplicate (AID 687008);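 also: 100% = cells given the luciferase reporter alone without the COUP-TF2 vector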
# stated-conditions: HEK293 NGFI-A luciferase reporter, luminescence; at 8.5 µM
This is one part of the list. Activity calls are given as the source filed them.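 The calls were made as follows: active = mean inhibition over three repeats above a set limit taken from the earlier primary screen (cut at about 38% in these data); inactive = the rest.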
Outcome field: choose from 1.0 for active, 0.0 for inactive

| molecule | class-assignment |
| --- | --- |
| CC1(C)CC(N2CCN(C(c3ccccc3)c3ccccc3)CC2)=CC(=[N+]2CCCCC2)C1 | 1.0 |
| COc1cccc(CNc2nc(NCc3ccccc3OC)nc3ccsc23)c1 | 0.0 |
| CC(C)(CNC(=O)c1ccc(Cl)c(S(=O)(=O)N2CCc3ccccc3C2)c1)N1CCOCC1 | 1.0 |
| Cc1ccc(CNC(=O)Nc2nnc([C@H]3C[C@H](O)[C@@H](CO)O3)s2)cc1 | 0.0 |
| Cc1nc(C(=O)NCc2ccccc2)sc1C1(C)CC(c2cccnc2)=NO1 (stereo unspecified) | 0.0 |
| CC[n+]1cc(C)ccc1/C=C/c1ccc(N(C)C)cc1 | 1.0 |
| O=C(Nc1ccc(S(=O)(=O)N2CCOCC2)cc1)C1CCN(S(=O)(=O)c2ccc(Cl)cc2)CC1 | 0.0 |
| CN(c1ccc2nc3ccccc3c(=O)n2n1)C1CCCCC1 | 1.0 |
| Cn1nccc1C(=O)NC1CCCc2c1cnn2-c1ccccc1F (stereo unspecified) | 1.0 |
| CCOC(=O)C1=C(c2ccc(OC)cc2)C(=O)c2ccccc2C1=O | 1.0 |

State the result this test recorded for C=CCn1c(C)cc(C2=NNC(=NCC)SC2)c1C .
1.0

// repeat for CCCCn1c(SCc2ncc(-c3ccccc3)o2)nc2cc(S(N)(=O)=O)ccc21 and report
0.0

// repeat for COc1ccc(S(=O)(=O)Nc2ccc3oc(C)c(C(C)=O)c3c2)cc1 and report
0.0

// repeat for C[C@H]1CCC/C=C/C(=O)c2c(O)cc(O)cc2CC(=O)O1 and report
0.0

// repeat for Cc1ccc(-c2cn3cc(C)ccc3n2)cc1 and report
1.0

// repeat for COc1cccc2c1C(=O)c1c(O)c3c(c(O)c1C2=O)CC(O)(C(C)=NNC(=O)c1ccc(Cl)c(Cl)c1)CC3OC1CC(N)C(O)C(C)O1 (stereo unspecified) and report
0.0

// repeat for O=C(OC12CC3CC(CC(C3)C1)C2)c1ccc(NCc2cc(O)ccc2O)cc1 and report
1.0

// repeat for Cc1cc(C(=O)NC2CCCc3c2cnn3-c2cccc(C)c2C)c(C)o1 (stereo unspecified) and report
0.0

// repeat for Cc1cc(C(=O)COC(=O)C2CC2)c(C)n1-c1ccc(F)cc1 and report
0.0

// repeat for Cc1ccc(OCC(=O)Nc2ccc(N3CCN(C(=O)c4ccco4)CC3)cc2)c(C)c1 and report
0.0

// repeat for COc1ccc(OC)c(CNC(=O)Cn2nc(C)c3c(C)n(-c4ccc(C)cc4)nc3c2=O)c1 and report
1.0
